Target: T1, 4H1351-AA
T1 chain: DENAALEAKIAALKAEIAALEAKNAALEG
Experiment: two-hybrid library CCmax;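 also: natural log of median RNA to DNA barcode read ratio; higher means stronger binding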
Details: mean of both orientations
Endpoint label: interaction score

These solved cases illustrate the format of a correct answer.
>>> print(df.to_string())
                                     binder     endpoint_label  recorded_value
0  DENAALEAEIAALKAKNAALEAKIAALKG [4H1142-AA]  interaction score           -1.31
1  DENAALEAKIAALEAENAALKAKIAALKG [4H1310-AA]  interaction score           -1.27

a = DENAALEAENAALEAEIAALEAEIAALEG [4H1153-AA]
b = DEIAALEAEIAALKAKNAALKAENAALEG [4H123-AA]
Q) Exercise: compare a and b ; which one has the greater interaction score? // caller expects the label of the chosen entry
A) b
